# TARGET_ENTITY: T1, human DLL3 (ACRO, DLL3-H52H4) (human, UniProt Q9NYJ7 27-492)
# T1 construct: Bought
# T1 sequence: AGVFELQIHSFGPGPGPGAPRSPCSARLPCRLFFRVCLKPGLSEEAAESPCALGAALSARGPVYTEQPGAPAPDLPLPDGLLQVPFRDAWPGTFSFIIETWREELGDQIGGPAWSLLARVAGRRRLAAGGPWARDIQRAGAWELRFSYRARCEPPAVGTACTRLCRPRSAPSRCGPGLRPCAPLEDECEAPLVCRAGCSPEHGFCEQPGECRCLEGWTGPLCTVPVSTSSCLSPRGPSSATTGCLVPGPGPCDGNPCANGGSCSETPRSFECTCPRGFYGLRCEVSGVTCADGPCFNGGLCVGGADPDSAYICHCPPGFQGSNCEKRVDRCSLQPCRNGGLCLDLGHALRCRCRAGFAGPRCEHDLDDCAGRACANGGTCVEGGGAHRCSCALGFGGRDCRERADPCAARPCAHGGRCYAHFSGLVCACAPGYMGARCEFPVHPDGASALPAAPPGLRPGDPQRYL
# ASSAY_NOTES: SPR Biacore 8K, Ab captured on Protein A
Measured pKd, listed per entry.
Friendly reminder that pKd comes from taking -log10 of the concentration in mol/L.

Below: 2 binders and their reported pKd.
BINDER	pKd
M6CH1 (antibody, human IgG1, kappa, V domains shown, chimeric antibody of mAb6, human IgG1/kappa; also called M6CHI) VH: EVQLQQSGPVLVKPGASVKMSCKASGYTFTDYYMNWVKQSHGKSLEWIGIINPYSGVTIYNHKFKGKATLTVDKSSNTAYMELNSLTSEDSAVYYCARQDSLLDYAMDYWGQGTSVTVSS VL: DILMTQSPSSMSVSLGDTVSITCHASQGISGNMGWLQQKPGKSFKGLIYHGANLEDGVPSRFSGSGSGADYSLTISSLESEDFADYYCVQYAQFPYTFGGGTKLEIKR	9.17
hu110L2H5 (antibody, human IgG1, kappa, V domains shown) VH: EVQLVQSGAEVKKPGASVKVSCKTSGYTFTDYYMNWVRQAPGQSLEWMGIINPYTGGTSYTQKFKGRVTITVDKSASTAYMELSSLRSEDTAVYYCARHFYDSSYLTYSTMDYWGQGTTVTVSS VL: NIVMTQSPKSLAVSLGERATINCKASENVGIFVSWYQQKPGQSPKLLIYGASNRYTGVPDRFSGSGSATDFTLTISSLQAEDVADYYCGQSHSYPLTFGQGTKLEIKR	9.69

We now examine a further binder.
In plain terms, hu6L4H13 (antibody, human IgG1, kappa, V domains shown, also called hu6L4VH13) VH: EVQLVQSGSELKKPGASVKVSCKASGYTFTDYYMNWVKQAPGQGLEWMGIINPYSGVTIYNHKFKGRFALSVDKSSNTAYLQISSLKAEDTAVYYCARQDSLLDYAMDYWGQGTTVTVSS VL: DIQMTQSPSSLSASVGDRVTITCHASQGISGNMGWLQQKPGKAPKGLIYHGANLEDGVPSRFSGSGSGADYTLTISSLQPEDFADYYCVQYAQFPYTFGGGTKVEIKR has a documented pKd of 9.49

src = patent US20250376519A1
